Assign viability to each entry below.
# System: primary AML patient cells (S056)
# assay.details: viability relative to DMSO control (fraction); higher = less drug effect (more viable cells)
# condition.label: 0.4 µM; 48 h
Answers are plain numbers.

Look over these answered cases.
{"smiles.input": "Cc1sc2c(c1C)C(c1ccc(Cl)cc1)=N[C@@H](CC(=O)Nc1ccc(O)cc1)c1nnc(C)n1-2", "measured.result": 0.631}
{"smiles.input": "CC[C@H](Nc1ncnc2[nH]cnc12)c1nc2cccc(F)c2c(=O)n1-c1ccccc1", "measured.result": 0.896}

Each molecule below has a reported value. Please supply its viability.
1. CC(C)c1cc(C(=O)N2Cc3ccc(CN4CCN(C)CC4)cc3C2)c(O)cc1O
2. CN1CC[C@H](c2c(O)cc(O)c3c(=O)cc(-c4ccccc4Cl)oc23)[C@H](O)C1

1: 0.164; 2: 0.065

###

# System: primary AML patient cells (S081)
# assay.details: viability relative to DMSO control (fraction); higher = less drug effect (more viable cells)
# condition.label: 0.024 µM; 48 h
Give viability for every item shown.

Worked cases, answers included:
{"smiles.input": "CS(=O)(=O)c1ccc(C(=O)Nc2ccc(Cl)c(-c3ccccn3)c2)c(Cl)c1", "assay.system": "primary AML patient cells (S081)", "viability": 0.926}
{"smiles.input": "CNC(=O)c1cc(Oc2ccc(NC(=O)Nc3ccc(Cl)c(C(F)(F)F)c3)cc2)ccn1", "assay.system": "primary AML patient cells (S081)", "viability": 0.918}
{"smiles.input": "Oc1ccc(/C=C/c2cc(O)cc(O)c2)cc1", "assay.system": "primary AML patient cells (S081)", "viability": 0.814}
{"smiles.input": "N#Cc1ccnc(N2C(=O)CC[C@H]2C(=O)N(c2cncc(F)c2)[C@H](C(=O)NC2CC(F)(F)C2)c2ccccc2Cl)c1", "assay.system": "primary AML patient cells (S081)", "viability": 0.994}
{"smiles.input": "O=C(Nc1cccc(C(F)(F)F)c1)Nc1cc(S(=O)(=O)NC2CC2)ccc1-c1ccsc1", "assay.system": "primary AML patient cells (S081)", "viability": 0.829}

Sure, the documented viability for `O=C(O)CSc1cc(NS(=O)(=O)c2ccc(Br)cc2)c2ccccc2c1O` is 0.934

###

# System: primary T-PLL patient cells (S008)
# assay.details: viability relative to DMSO control (fraction); higher = less drug effect (more viable cells)
# condition.label: 1 µM; 48 h
value.kind: viability

{"compound": "CC#CC(=O)N1CCC[C@H]1c1nc(-c2ccc(C(=O)Nc3ccccn3)cc2)c2c(N)nccn12 [Acalabrutinib (ACP-196)]", "viability": 0.989}
{"compound": "Nc1ccc2ncnc(NCCc3ccc(Oc4ccccc4)cc3)c2c1 [EVP4593]", "viability": 0.861}
{"compound": "COc1cccc2c1C(=O)c1c(O)c3c(c(O)c1C2=O)C[C@@](O)(C(=O)CO)C[C@@H]3O[C@H]1C[C@H](N)[C@H](O)[C@H](C)O1 [Doxorubicin]", "viability": 0.607}

Lab note: next compound to report on.
Documented viability of Cc1nc(Nc2ncc(C(=O)Nc3c(C)cccc3Cl)s2)cc(N2CCN(CCO)CC2)n1 [Dasatinib] : 0.996

###

# Tested on: primary T-PLL patient cells (S008)
# assay.details: viability relative to DMSO control (fraction); higher = less drug effect (more viable cells)
# condition.label: 3 µM; 48 h
value.kind: viability
Give bare numbers.

Recorded viability, per entry:
{"smiles.input": "CS(=O)(=O)c1ccc(C(=O)Nc2ccc(Cl)c(-c3ccccn3)c2)c(Cl)c1", "viability": 0.938}
{"smiles.input": "O=C(Nc1cccc(C(F)(F)F)c1)Nc1cc(S(=O)(=O)NC2CC2)ccc1-c1ccsc1", "viability": 0.863}
{"smiles.input": "Nc1nc(=S)c2[nH]cnc2[nH]1", "viability": 0.9}

// for each compound below, give its viability
1. N#Cc1ccnc(N2C(=O)CC[C@H]2C(=O)N(c2cncc(F)c2)[C@H](C(=O)NC2CC(F)(F)C2)c2ccccc2Cl)c1
2. CCc1nc(C(N)=O)c(Nc2ccc(N3CCC(N4CCN(C)CC4)CC3)c(OC)c2)nc1NC1CCOCC1
3. CCN1CCN(Cc2ccc(Nc3ncc(F)c(-c4cc(F)c5nc(C)n(C(C)C)c5c4)n3)nc2)CC1

1: 1.04; 2: 0.787; 3: 0.415

###

I'd appreciate it if you could supply viability values for the items below.
# System: primary AML patient cells (S037)
# assay.details: viability relative to DMSO control (fraction); higher = less drug effect (more viable cells)
# condition.label: 3 µM; 48 h
Numbers only.

{"smiles.input": "Oc1ccc(/C=C/c2cc(O)cc(O)c2)cc1", "viability": 0.84}
{"smiles.input": "O=C(c1cc(Cc2n[nH]c(=O)c3ccccc23)ccc1F)N1CCN(C(=O)C2CC2)CC1", "viability": 0.859}
{"smiles.input": "C[C@@H](Oc1cc(-c2cnn(C3CCNCC3)c2)cnc1N)c1c(Cl)ccc(F)c1Cl", "viability": 0.937}

Here is the next item to consider.
Record `O=C(O)CSc1cc(NS(=O)(=O)c2ccc(Br)cc2)c2ccccc2c1O` ; system primary AML patient cells (S037); viability = 0.978

###

# Test system: primary AML patient cells (S002)
# assay.details: viability relative to DMSO control (fraction); higher = less drug effect (more viable cells)
# condition.label: 0.024 µM; 48 h
Threshold 0.8: viability strictly smaller gives class 1, otherwise class 0.

{"smiles.input": "O=C(O)CSc1cc(NS(=O)(=O)c2ccc(Br)cc2)c2ccccc2c1O", "assigned.class": "class 0"}
{"smiles.input": "Nc1ncn([C@H]2C[C@H](O)[C@@H](CO)O2)c(=O)n1", "assigned.class": "class 0"}
{"smiles.input": "CNC(=O)c1cc(Oc2ccc(NC(=O)Nc3ccc(Cl)c(C(F)(F)F)c3)cc2)ccn1", "assigned.class": "class 0"}

Below: the item to evaluate.
Lab log: compare recorded viability with 0.8; is it strictly lower for `Nc1nc(Cl)nc2c1ncn2[C@@H]1O[C@H](CO)[C@@H](O)[C@@H]1F` ? class 1

###

# Test system: primary AML patient cells (S012)
# assay.details: viability relative to DMSO control (fraction); higher = less drug effect (more viable cells)
# condition.label: 15 µM; 48 h
value.kind: viability
Answers are plain numbers.

For orientation, consider the following solved cases.
{"smiles.input": "C[C@@H](Oc1cc(-c2cnn(C3CCNCC3)c2)cnc1N)c1c(Cl)ccc(F)c1Cl", "assay.system": "primary AML patient cells (S012)", "measured.result": 0.163}
{"smiles.input": "CS(=O)(=O)c1ccc(C(=O)Nc2ccc(Cl)c(-c3ccccn3)c2)c(Cl)c1", "assay.system": "primary AML patient cells (S012)", "measured.result": 1}
{"smiles.input": "CNC(=O)c1cc(Oc2ccc(NC(=O)Nc3ccc(Cl)c(C(F)(F)F)c3)cc2)ccn1", "assay.system": "primary AML patient cells (S012)", "measured.result": 1.09}
{"smiles.input": "Nc1nc(=S)c2[nH]cnc2[nH]1", "assay.system": "primary AML patient cells (S012)", "measured.result": 0.513}

Would you kindly look at the next entry?
Reported viability ( `CCc1nc(C(N)=O)c(Nc2ccc(N3CCC(N4CCN(C)CC4)CC3)c(OC)c2)nc1NC1CCOCC1` ) = 0.928

###

# Tested on: primary AML patient cells (S021)
# assay.details: viability relative to DMSO control (fraction); higher = less drug effect (more viable cells)
# condition.label: 0.024 µM; 48 h
So basically, if viability comes in under 1 it's y, and if it's 1 or more it's n.

{"smiles.input": "Nc1ncn([C@H]2C[C@H](O)[C@@H](CO)O2)c(=O)n1", "assigned.class": "n"}
{"smiles.input": "CCc1nc(C(N)=O)c(Nc2ccc(N3CCC(N4CCN(C)CC4)CC3)c(OC)c2)nc1NC1CCOCC1", "assigned.class": "n"}
{"smiles.input": "Nc1nc(=S)c2[nH]cnc2[nH]1", "assigned.class": "n"}

Moving on to another compound below.
In plain terms, does `N#CC[C@H](C1CCCC1)n1cc(-c2ncnc3[nH]ccc23)cn1` come in under 1 for viability? y

###

# System: primary AML patient cells (S089)
# assay.details: viability relative to DMSO control (fraction); higher = less drug effect (more viable cells)
# condition.label: 3 µM; 48 h
value.kind: viability

{"compound": "CCN1CCN(Cc2ccc(Nc3ncc(F)c(-c4cc(F)c5nc(C)n(C(C)C)c5c4)n3)nc2)CC1", "viability": 0.0472}
{"compound": "Nc1nc(Cl)nc2c1ncn2[C@@H]1O[C@H](CO)[C@@H](O)[C@@H]1F [Clofarabine]", "viability": 0.461}

List reported viability for each of these compounds:
1. O=C(O)CSc1cc(NS(=O)(=O)c2ccc(Br)cc2)c2ccccc2c1O [UMI-77]
2. N#Cc1ccnc(N2C(=O)CC[C@H]2C(=O)N(c2cncc(F)c2)[C@H](C(=O)NC2CC(F)(F)C2)c2ccccc2Cl)c1 [AG-120]
3. Nc1nc(=S)c2[nH]cnc2[nH]1 [Thioguanin]
4. Nc1ncn([C@H]2C[C@H](O)[C@@H](CO)O2)c(=O)n1 [Decitabine (Dacogen)]

1.03
0.903
0.313
1.22
